Just for reference, patent US20150105252A1 is where these values come from.

Items are presented alongside their recorded Foxtail, Giant plant response rating.
# System: foxtail, giant
# assay.explanation: Test A postemergence
# Type: in vivo, Setaria faberii
# applied.conditions: Postemergence, 1000 g ai/ha; visual rating after approx. 10 days, 0 to 100 scale (0 no effect, 100 complete control)
Reply with just the number.

Consider the reported Foxtail, Giant plant response rating for these molecules:
// lookup Foxtail, Giant plant response rating for CCc1cc(C(=O)NC)nn1Cc1cccc(OC(F)(F)F)c1 [Compound 65]
50

Now the same for CCCc1cc(C(=O)NCC)nn1Cc1cccc(C(F)(F)F)c1 [Compound 29]
90

Another molecule to check: CCc1cc(C(=O)NCC(C)C)nn1Cc1cccc(C(F)(F)F)c1 [Compound 49]
100

Also CCc1cc(C(=O)N(C)CC)nn1Cc1cccc(OC(F)(F)F)c1 [Compound 68] ?
20

Another molecule: CSc1cc(C(=O)NC2CC2)nn1Cc1cccc(C(F)(F)F)c1 [Compound 22]
40

Do the same for CCc1cc(C(=O)NCC(C)(C)C)nn1Cc1cccc(C(F)(F)F)c1 [Compound 46] please
60

Next molecule up: CCc1cc(C(=O)NC)nn1Cc1cccc(C(F)(F)F)c1 [Compound 45]
70

Same for CCc1cc(C(=O)N(C)C)nn1Cc1cccc(OC(F)(F)F)c1 [Compound 56]
20

And for CCc1cc(C(=O)NCCOC)nn1Cc1cccc(OC(F)(F)F)c1 [Compound 57] ?
10

Now turn to the next molecule.
Which Foxtail, Giant plant response rating reading was recorded for the molecule CCCc1cc(C(=O)NCC(F)(F)F)nn1Cc1cccc(C(F)(F)F)c1 [Compound 31] ?
70
